Ref: paper PMC12139101

Target: POLR2G (human, UniProt P62487 1-172)
Experiment: ELISA; apparent Kd; 100 mM K+; ELISA: oligos folded in Tris-HCl pH 7.4, 100 mM KCl; ELISA buffer 100 mM KCl, 50 mM KH2PO4 pH 7.4, 3% BSA block, 1 h (room temperature stated for coating and bl)
pKd: −log10 of the molar value.
Reported values of pKd for individual entries
READOUT TYPE: pKd

# BINDER, READOUT TYPE, OBSERVED MEASUREMENT
measured = [
    ("TGGGGGTGGAGGTGGGACAAGGGAAAGGGGTGA (structured_DNA) [HS-40_G4_aWT]", "pKd", 7.28),
    ("CCAGAAGCGGGGGTGGGGCACTGACCCCGACAGGGGCCT (structured_DNA) [HS2_G4_WT (bWT)]", "pKd", 7.32),
]
